IC50 values by entry
# experimental system: Human immunodeficiency virus type 1 protease (Human immunodeficiency virus 1, UniProt Q72874)
# protocol: Inhibitory concentration against human immunodeficiency virus-1 protease
quantity measured: IC50 (nM)

[
  {
    "compound": "CCCCC(NC(=O)CCCCCCCCCCCCCCC(=O)N[C@H](CC(=O)N[C@@H](Cc1ccccc1)C(=O)O)C(N)=O)C(=O)N[C@@H](C(=O)N[C@@H](Cc1ccccc1)C(N)=O)C(C)CC (stereo not given in full)",
    "observed": 1600
  },
  {
    "compound": "CCC(C)[C@@H](NC(=O)C(CCc1ccccc1)NC(=O)CCCCCCCCCCCCCCC(=O)N[C@H](CC(=O)N[C@@H](Cc1ccccc1)C(=O)O)C(N)=O)C(=O)N[C@@H](Cc1ccccc1)C(N)=O (stereo not given in full)",
    "observed": 980
  },
  {
    "compound": "CCC(C)[C@@H](NC(=O)[C@H](C(C)O)N(C)C(=O)CCCCCCCCCCCCCCC(=O)NC(Cc1ccc(N)cc1)C(=O)N[C@@H](Cc1ccccc1)C(=O)O)C(=O)NC(CO)C(N)=O (stereo not given in full)",
    "observed": 1.2
  },
  {
    "compound": "CC[C@H](C)[C@@H](NC(=O)[C@H]([C@H](C)O)N(C)C(=O)CCCCCCCCCCCCCCC(=O)NC(Cc1ccc(O)cc1)C(=O)N[C@@H](Cc1ccccc1)C(=O)O)C(=O)NC(CO)C(N)=O (stereo not given in full)",
    "observed": 774
  },
  {
    "compound": "CC[C@H](C)[C@@H](NC(=O)[C@@H](NC(=O)CCCCCCCCCCCCCCC(=O)N[C@H](CC(=O)N[C@@H](Cc1ccccc1)C(=O)O)C(N)=O)[C@H](C)O)C(=O)N1Cc2[nH]c3ccccc3c2CC1C(N)=O (stereo not given in full)",
    "observed": 3100
  }
]

Data provenance is ChEMBL document CHEMBL1143555.
